- Assay System: PDZØ9, engineered variant (L391F/K392M) of pWT SAP97 PDZ2 (human) (UniProt Q12959)
- Sequence (Q12959 311-407, change not shown): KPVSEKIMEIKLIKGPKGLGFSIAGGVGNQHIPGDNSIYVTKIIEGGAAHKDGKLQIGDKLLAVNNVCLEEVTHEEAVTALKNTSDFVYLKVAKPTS
- Assay Details: stopped-flow spectroscopy
Ends that are not written are not given here.
Kindly apply the following: true (1) if koff is less than 4 s⁻¹, false (0) in every other case.

Ac-KRKETLV [KRKETLV peptide (C-terminus of neuroepithelial cell-transforming gene 1 protein, Net1)]
true (1)
Ac-NSKETVV [NSKETVV peptide (C-terminus of E3 ubiquitin-protein ligase MARCH3)]
true (1)
Ac-EKKHTLL [EKKHTLL peptide (C-terminus of E9PN86_HUMAN, partial transcript of EIF3M_HUMAN)]
false (0)
SARSTDV [SARSTDV peptide (C-terminus of anoctamin-9)]
true (1)
Ac-YRRESAI [YRRESAI peptide (C-terminus of inward rectifier potassium channel 4, Kir2.3)]
false (0)
Ac-VSKETPL [VSKETPL peptide (C-terminus of mitogen-activated protein kinase 12, p38γ)]
false (0)

**Q:** # check: koff < 4 s⁻¹ for Ac-RSISTDV [RSISTDV peptide (C-terminus of protein FAM163B)]
**A:** false (0)

**Q:** # check: koff < 4 s⁻¹ for Ac-TSRETDL [TSRETDL peptide (C-terminus of potassium voltage-gated channel subfamily A member 5, Kv1.5)]
**A:** true (1)
